# SYSTEM_TESTED: Cannabinoid receptor 2 (Mus musculus, UniProt P47936)
# Sequence (P47936 whole entry): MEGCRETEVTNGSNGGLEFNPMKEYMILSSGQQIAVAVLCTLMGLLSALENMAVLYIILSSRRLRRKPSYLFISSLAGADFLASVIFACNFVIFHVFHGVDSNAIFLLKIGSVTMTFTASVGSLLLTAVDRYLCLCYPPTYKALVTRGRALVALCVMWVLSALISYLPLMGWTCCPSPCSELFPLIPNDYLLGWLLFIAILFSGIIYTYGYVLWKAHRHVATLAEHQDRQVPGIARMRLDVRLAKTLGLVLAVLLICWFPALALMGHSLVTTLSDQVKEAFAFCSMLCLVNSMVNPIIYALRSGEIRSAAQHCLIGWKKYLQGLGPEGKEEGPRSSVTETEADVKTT
# PROCEDURE_DETAILS: Displacement of [3H]CP-55940 from CB2 receptor in mouse spleen membranes
# Type: cell membranes, Membrane
pKi: −log10 of the molar value.
The following compounds are listed with their measured pKi values.
RECORDED_ENDPOINT: pKi

{"columns": ["SUBSTANCE_SMILES", "ENDPOINT_VALUE"],
 "data": [
  ["CCCCCCC(C)(C)c1cc(O)c2c(c1)oc(=O)c1ccc(OC)cc12", 8.17],
  ["CCCCCCC(C)(C)c1cc(O)c2c(c1)OC(C)(C)c1ccc(O)cc1-2", 8.32],
  ["CCCCCCC(C)(C)c1cc(O)c2c(c1)oc(=O)c1ccc(O)cc12", 9.09],
  ["CCCCCCC(C)(C)c1cc(O)c2c(c1)oc(=O)c1ccc(C)cc12", 8.51],
  ["CCCCCCC(C)(C)c1cc(O)c2c(c1)OC(C)(C)c1ccc(C)cc1-2", 8.96],
  ["CCCCCCC(C)(C)c1cc(O)c2c(c1)OC(C)(C)c1ccc(OC)cc1-2", 8.23]
]}
